# Experiment: Metabolic stability in human liver S-9 fractions
# Format: in vitro ADME
# Condition info: % parent remaining after 30 min in human liver S-9 divided by average % of ranolazine remaining (57%)
Measurement type: Liver S-9 stability factor

a. COc1ccccc1OCC(O)CN1CCN(CC(=O)Nc2c(C)cccc2C)CC1 (racemic) [Ranolazine, reference compound]
b. Cc1cccc(C)c1NC(=O)CN(C)CCCN(C)CC(O)Cc1ccccc1 (stereo not drawn)
c. Cc1cccc(C)c1NC(=O)CN(C)CCN(C)CC(O)COc1ccc2c(c1)OCO2 (stereo not drawn)
d. CCN(CCN(CC)CC(O)c1ccccc1Cl)CC(=O)Nc1c(C)cccc1C (stereo not drawn)
Sequence the entries by Liver S-9 stability factor, beginning with the highest number. Return value: ordered labels per request.
c, a, b, d

The measurements presented in this section are drawn from patent US6638970B2.
